# Tested on: RPMI-8226 leukemia
# PROTOCOL_NOTES: NCI-60 one-dose screen, 48 h
# SETUP_CONDITIONS: 10 µM unless noted
About 83,000 compounds went through this panel and 20% of them were active in at least one assay; those are over-represented in the sample as a whole. Activity calls are given as the source filed them. The calls were made as follows: active = growth percent below 10; inactive = the rest.
Possible outcomes: active, inactive

{"MOLECULE": "O=S(=O)(NCCCNc1cc(-c2c(-c3cccc(O)c3)nc3sccn23)ccn1)c1cccc(Cl)c1", "MEASUREMENT_TARGET": "RPMI-8226 leukemia", "CAT": "active"}
{"MOLECULE": "CC1=C([Se]CC(OC(=O)[C@@H](CO)NC(=O)OC(C)(C)C)C(=O)NC(C)(C)C)C(=O)c2ccccc2C1=O (stereo not given in full)", "MEASUREMENT_TARGET": "RPMI-8226 leukemia", "CAT": "active"}
{"MOLECULE": "Cc1cc(Cl)nc(NCc2cc(Nc3ccnc4cc(Cl)ccc34)ccc2F)n1", "MEASUREMENT_TARGET": "RPMI-8226 leukemia", "CAT": "inactive"}
{"MOLECULE": "CCN(CC)c1ccc(C(=O)c2ccc(N(CC)CC)cc2)cc1", "MEASUREMENT_TARGET": "RPMI-8226 leukemia", "CAT": "inactive"}
{"MOLECULE": "O=C(CSc1nccc(Nc2ccc(S(=O)(=O)Nc3nccs3)cc2)n1)c1ccc(F)cc1", "MEASUREMENT_TARGET": "RPMI-8226 leukemia", "CAT": "inactive"}
